Tested on: MS2 coat protein
run-description: apparent KD of MS2 coat protein; higher = weaker reporter binding
experimental-setup: Eterna round: R107; input ligand: none
readout: apparent KD of MS2 coat protein (nM)

residue_string="UCAGUGCAAGGAAGGAGCGGGUACAUGAGGAUCACCCAUGUGCAAGUGGUGAGUGUUCGUGCCCAGGUAGGUCGCCUAGCCUGGU [XArg-B19]" unit_annotation=nM measured_number=192
residue_string="GCACAAGAUGGAAGGAGCGCUGGUAAAAGUCACAUGAGGAUCACCCAUGUGCUCCUUGCCGAGCAGGUAGGUCGCCAUCUUGUGC [SSAB NP+V+V2 #4]" unit_annotation=nM measured_number=27.8
residue_string="AAAAUAAAGGCGGCCGCCACUAGAGUUAGGCUUAUGUACUGGGUAACAUGAGGAUCACCCAUGUAUAGGACCGGGCCAUAAUAAA [Same State - Tryptophan B (Freestyle 2)]" unit_annotation=nM measured_number=57.3
residue_string="UCGGGCAGAGCGGCCGCCACUGUUUGGCAUGCGGAUGAAGGAACAUGAGGAUCACCCAUGUAGAUUAGGACCGGGCUGGCGGAGA [jjhemullin]" unit_annotation=nM measured_number=20.1
residue_string="CGCAACCCACAUGAGGAUCACCCAUGUGAAGGAGCGCCGAAUAAGGCAGGUAGGUCGCGCAUGAAUAAAUCAUGUAGGAAGCGAA [XArg-A 6 V1&2]" unit_annotation=nM measured_number=32.2
residue_string=GGGCGCGAGACGGCCGCCACUACACAUGAGGAUCACCCAUGUAUGGCAACAUGAGGAUCUGCCAUUAGGACCGGGUCAGGGCCCA unit_annotation=nM measured_number=31.2
residue_string="ACAUGAGGAUCACCCAUGUAUGAUGUUCCUCGAGGACCGGUACGGCCGCCACUCGAACGAGUGGCGCGCGAGCGCGCGCUCGCGC [aVa]" unit_annotation=nM measured_number=15.6
residue_string="UCGCUCUGGGUGAGUUCCGGAGAUGUGGAAGGAGCGCUCGAAAGAGCAGGUAGGUCGCCAACGGACAUGAGGAUCACCCAUGUAC [Same State - Arginine A (Freestyle 21)]" unit_annotation=nM measured_number=39.1
residue_string="GGAGUCGGCACGGCCGCCACUGCGGUGGUGUGACAUGAGGAUCACCCAUGUUGUCAUGCGGCCCUUAGGACCGGGUGGCGGUUCC [#1 Exclusion - Tryptophan B Attempt #22 (HarryS)]" unit_annotation=nM measured_number=58.7
residue_string="UGUACCAUGUCGGCCGCCACUUGAAAUAAACAAGAGGAUCACCCUUGUGACGUCAAAGACGUCUCAAGGACCGGGACAUGGUACU [TryBS Zipper #StaticStem #Zipper]" unit_annotation=nM measured_number=313
residue_string="ACAUGAGGGCGAAGGAGCGCGUACAUGAGGAUCACCCAUGUCUAUAUCCGUCCGCGUGUAACGCAGGUAGGUCGCGCUGUUAAUU [#14 Exclusion - Arginine B]" unit_annotation=nM measured_number=16
residue_string="ACCUACACGGAGACGUGUAGGAGUAAUGAUACCAGCAUGGAGACAUGCCCUUGGCAGCGUUACAUGAGGAUCACCCAUGUAGGUU [ETHA #4]" unit_annotation=nM measured_number=43.6
residue_string="GGCUCCAGCCGAAGGAGCGCUAGAAGGUGACAUGAGGAUCACCCAUGUGUGUGAUGUGGCUAGCAGGUAGGUCGCGGAGGAGCUU [Exclusion - Arginine B (Freestyle 19)]" unit_annotation=nM measured_number=64.5
residue_string=UGUAUGUGAUCUGAUACCAGCUUUGAUAACCUGAGGAUCACCCUGGUAAGGCGAAAGCCAAGCCCUUGGCAGCAGAUCGCAUACU unit_annotation=nM measured_number=34.5
residue_string="GCACAUGAGGAUCACCCAUGUACAACUGAAGGAGCGAGACAGAACUCAGGUAGGUCGCAGACUGCACAAUUGCGGACGACAUGGG [Exclusion Arginine A GF21]" unit_annotation=nM measured_number=34.2
residue_string="ACGGAUCGGAAACGAUCCGCGGCUAGGGUGCGAGGACCGGUACGGCCGCCACUCGGGUAACAUGAGGAUCACCCAUGUCUGAUUU [ETA NP+V+V2 #14]" unit_annotation=nM measured_number=123
residue_string="AGAUUCGACACGGCCGCCACUCGUGGAGGAUUACCGAGUGUCGAACAUGAGGAUCACCCAUGUACGAGGACCGGGUGUUGAGUCU [XTryp B #15]" unit_annotation=nM measured_number=27.3
residue_string="UGUAACAUGAGGAUCACCCAUGUGAGUGAUACCAGACUAGUGUUAGUCCCUUGGCAGCACGCUGGGCGAGUGUGUAGUCUAUGCG [Same State - Theophylline A (Freestyle 16)]" unit_annotation=nM measured_number=108
residue_string="ACAUGAGGAUCACCCAUGUGGAGCAGGGUACGAGGACCGGUACGGCCGCCACUCGAGCGUUAUGACGAGUGAAUGGCAACGAUGU [whbob_X-Trypto_A_V1.0]" unit_annotation=nM measured_number=10.5
residue_string="GCUGCUUUGGGAAGGAGCGCUGCGUUAUCAUGUUGGACAUGAGGAUCACCCAUGUAAAUGUAGCAGGUAGGUCGCUUAGGGCAGC [EAP NP+V+V2 #15]" unit_annotation=nM measured_number=31.8
residue_string="ACGUAAUGCAGAAGGAGCGUCGAUCUCAUACAUGAGGAUCACCCAUGUUACAUGGUUGGACGACAGGUAGGUCGCUGAAGUACGA [#06 Exclusion - Arginine B]" unit_annotation=nM measured_number=20.6
residue_string="UACUUGCUGACGGCCGCCACUAGAACAUGAGGAUCACCCAUGUACGGCGGCCGUCAUGGGUGGACUAGGACCGGGUCAGCAAGAU [(Trp1)-(Ms2)-(T)'-(M)'-(Trp2)_Design6]" unit_annotation=nM measured_number=12
residue_string="ACAUGAGGAUCACCCAUGUAUGGCGCGGAAGGAGCGUGAUUAAGCACAGGUAGGUCGCUGCGUUGAUCGAGCGUUAGCUCGAUAA [SSArg A #9]" unit_annotation=nM measured_number=19
